Entries annotated with measured inhibition at 10 µM
test system: A549; test: Sulforhodamine B proliferation; type: cell-based; details: Homo sapiens, A549, 72 h, SRB, read-out: Inhibitory rate % (A549)

| substanceSmiles | inhibition at 10 µM |
| --- | --- |
| C=C(C)C(=O)n1c(=O)n(C(=C)C)c2ccc([N+](=O)[O-])cc21 | 2.8% |
| C=C(C)n1c(=O)n(C(=O)CCCCCCC)c2ccc([N+](=O)[O-])cc21 | 33.3% |
| C=C(C)C(=O)n1c(=O)n(C(=C)C)c2cc([N+](=O)[O-])ccc21 | 34.1% |

====

Entries annotated with measured inhibition at 10 µM
test system: SGC-7901; assay: Sulforhodamine B proliferation; assay type: cell-based; conditions: Homo sapiens, SGC-7901, 72 h, SRB, read-out: Inhibitory rate % (SGC-7901)

| substanceSmiles | targetOfAssay | unitDescriptor | inhibition at 10 µM |
| --- | --- | --- | --- |
| C=CC(=O)n1c(=O)n(C(=C)C)c2cc([N+](=O)[O-])ccc21 | SGC-7901 | % | 7.3 |
| C=C(C)n1c(=O)n(C(=O)CCCCCCC)c2ccc([N+](=O)[O-])cc21 | SGC-7901 | % | 20.1 |
| C=C(C)n1c(=O)n(C(=O)CC)c2cc([N+](=O)[O-])ccc21 | SGC-7901 | % | 22 |
| C=C(C)n1c(=O)n(C(=O)CCC)c2cc([N+](=O)[O-])ccc21 | SGC-7901 | % | 28.1 |
| C=C(C)C(=O)n1c(=O)n(C(=C)C)c2ccc([N+](=O)[O-])cc21 | SGC-7901 | % | 28 |
| C=C(C)n1c(=O)n(C(C)=O)c2ncc(Br)cc21 | SGC-7901 | % | 70.2 |
| C=C(C)n1c(=O)n(C(=O)CCC)c2ccc([N+](=O)[O-])cc21 | SGC-7901 | % | 26.4 |
| C=C(C)n1c(=O)n(C(=O)c2ccccc2C)c2ccc([N+](=O)[O-])cc21 | SGC-7901 | % | 40.5 |
| C=C(C)n1c(=O)n(C(=O)CCCCC)c2cc([N+](=O)[O-])ccc21 | SGC-7901 | % | 25.5 |
| C=C(C)n1c(=O)n(C(=O)c2ccccc2C)c2cc([N+](=O)[O-])ccc21 | SGC-7901 | % | 44.2 |
| C=CC(=O)n1c(=O)n(C(=C)C)c2ccc([N+](=O)[O-])cc21 | SGC-7901 | % | 30.4 |
| C=C(C)n1c(=O)n(C(=O)CCCCCCC)c2cc([N+](=O)[O-])ccc21 | SGC-7901 | % | 12.4 |
| C=C(C)C(=O)n1c(=O)n(C(=C)C)c2cc([N+](=O)[O-])ccc21 | SGC-7901 | % | 34.1 |

Values from patent US9738612B2
